The measured values listed here are drawn from patent US12122763B2.

Known inhibition at 0.1 µM of a selection of compounds
- testTarget: Androgen Receptor (AR) protein (Homo sapiens, UniProt P10275, T878A)
- Construct: endogenous in cells; host or cells: LNCaP
- Sequence (P10275 whole entry T878A): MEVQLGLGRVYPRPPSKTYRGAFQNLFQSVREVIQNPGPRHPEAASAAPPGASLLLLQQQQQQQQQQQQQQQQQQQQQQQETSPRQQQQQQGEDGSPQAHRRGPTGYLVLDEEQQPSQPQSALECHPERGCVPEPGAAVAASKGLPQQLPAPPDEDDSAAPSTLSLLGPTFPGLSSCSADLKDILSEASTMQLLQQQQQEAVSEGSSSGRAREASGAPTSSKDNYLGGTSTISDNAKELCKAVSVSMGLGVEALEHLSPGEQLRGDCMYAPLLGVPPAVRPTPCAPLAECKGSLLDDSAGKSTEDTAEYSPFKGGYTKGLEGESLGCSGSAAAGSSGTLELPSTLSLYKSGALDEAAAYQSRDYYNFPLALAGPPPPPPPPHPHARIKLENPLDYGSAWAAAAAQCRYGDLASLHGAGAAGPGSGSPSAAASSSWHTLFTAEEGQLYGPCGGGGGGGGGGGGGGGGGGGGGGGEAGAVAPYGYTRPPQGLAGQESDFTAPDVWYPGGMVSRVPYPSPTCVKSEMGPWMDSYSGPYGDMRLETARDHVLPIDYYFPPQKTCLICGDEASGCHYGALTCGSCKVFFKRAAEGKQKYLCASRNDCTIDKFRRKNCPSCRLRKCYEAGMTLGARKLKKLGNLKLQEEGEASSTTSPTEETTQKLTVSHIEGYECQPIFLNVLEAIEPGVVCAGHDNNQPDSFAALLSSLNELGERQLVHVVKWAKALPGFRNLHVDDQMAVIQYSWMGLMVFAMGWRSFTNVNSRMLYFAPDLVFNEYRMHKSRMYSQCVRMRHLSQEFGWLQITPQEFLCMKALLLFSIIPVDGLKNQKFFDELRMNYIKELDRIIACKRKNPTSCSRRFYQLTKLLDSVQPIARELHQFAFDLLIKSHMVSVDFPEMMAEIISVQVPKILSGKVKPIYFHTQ
- Sequence (Q96SW2 whole entry partner): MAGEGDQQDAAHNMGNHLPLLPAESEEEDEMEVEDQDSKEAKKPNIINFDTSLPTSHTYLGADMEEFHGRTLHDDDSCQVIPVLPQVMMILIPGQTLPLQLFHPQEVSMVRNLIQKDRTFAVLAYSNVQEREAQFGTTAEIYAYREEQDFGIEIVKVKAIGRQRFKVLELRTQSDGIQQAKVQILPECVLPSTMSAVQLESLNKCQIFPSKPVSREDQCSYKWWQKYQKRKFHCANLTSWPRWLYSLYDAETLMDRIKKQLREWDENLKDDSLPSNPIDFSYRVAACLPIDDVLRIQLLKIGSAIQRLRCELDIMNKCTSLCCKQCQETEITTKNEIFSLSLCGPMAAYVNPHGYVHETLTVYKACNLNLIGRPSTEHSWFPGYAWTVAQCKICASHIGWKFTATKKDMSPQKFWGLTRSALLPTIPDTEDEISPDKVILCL
- protocolDescription: Androgen Receptor (AR) protein degradation assay in LNCaP cells, western blotting
- Assay type: cell-based
- appliedConditions: 20 h, 0.1 μM compound
# value in %; strip the unit string

N#Cc1ccc(N2CCC(C(=O)Nc3ccc(CCN4CCC(CN5CCN(c6ccc7c(c6)C(=O)N(C6CCC(=O)NC6=O)C7=O)CC5)CC4)cn3)CC2)cc1C(F)(F)F (stereo not drawn) [Example 165]
87
N#Cc1ccc(N2CCC(C(=O)Nc3ccc(N4CCN(C(=O)CCCCCNc5ccc6c(c5)C(=O)N(C5CCC(=O)NC5=O)C6=O)CC4)cn3)CC2)cc1Cl (stereo not drawn) [Example 112]
55

Turning now to a further compound:
Ask: Query (compound): N#Cc1ccc(N2CCC(C(=O)Nc3ccc(CCN4CCC(CN5CCN(c6cc7c(cc6F)C(=O)N(C6CCC(=O)NC6=O)C7=O)CC5)CC4)cn3)CC2)cc1C(F)(F)F (stereo not drawn) [Example 189] ; field requested: inhibition at 0.1 µM
Reply: 79

====

Known inhibition at 0.01 µM of a selection of molecules
- testTarget: Androgen Receptor (AR) protein (Homo sapiens, UniProt P10275, T878A)
- Construct: endogenous in cells; host or cells: LNCaP
- protocolDescription: Androgen Receptor (AR) protein degradation assay in LNCaP cells, western blotting
- Format: cell-based
- appliedConditions: 20 h, 0.01 μM compound
- Protocol: Experimental Example 1: Androgen Receptor (AR) Protein Degradation Assay After treating LNCaP cells with the synthesized Example compound, the amount of AR protein present in the cells was measured. The amount of AR protein was measured using western blotting detection method. […] [Protein quantification] […] Then, absorbance was measured at a wavelength of 562 nm. The unknown protein concentration was measured using a BSA standard curve (0, 0.125, 0.25, 0.5, 1, 2 mg/ml). […]
# value in %; strip the unit string

N#Cc1ccc(N2CCC(C(=O)Nc3ccc(N4CCC(CCN5CCN(c6ccc7c(c6)CN(C6CCC(=O)NC6=O)C7=O)CC5)CC4)cn3)CC2)cc1C(F)(F)F (stereo not drawn) [Example 139]
30

Ask: Query (molecule): N#Cc1ccc(N2CCC(C(=O)Nc3ccc(N4CCC(CCN5CC6(CCN(c7ccc8c(c7)CN(C7CCC(=O)NC7=O)C8=O)CC6)C5)CC4)cn3)CC2)cc1C(F)(F)F (stereo not drawn) [Example 138] ; field requested: inhibition at 0.01 µM
Reply: 52

Ask: Query (molecule): N#Cc1ccc(N2CCC(O)(C(=O)Nc3ccc(N4CCC(CN5CC6(CCN(c7ccc8c(c7)C(=O)N(C7CCC(=O)NC7=O)C8=O)CC6)C5)CC4)cn3)CC2)cc1C(F)(F)F (stereo not drawn) [Example 55] ; field requested: inhibition at 0.01 µM
Reply: 34

Ask: Query (molecule): C[C@@H]1CN(CC2CN(c3ccc4c(c3)C(=O)N(C3CCC(=O)NC3=O)C4=O)C2)CCN1CC1CCN(c2ccc(NC(=O)C3CCN(c4ccc(C#N)c(C(F)(F)F)c4)CC3)nc2)CC1 (stereo partly drawn) [Example 24] ; field requested: inhibition at 0.01 µM
Reply: 53

Ask: Query (molecule): N#Cc1ccc(N2CCC(C(=O)Nc3ccc(N4CCC(CN5CCN(c6ccc7c(c6)C(=O)N(C6CCC(=O)NC6=O)C7=O)CC5)CC4)cn3)CC2)cc1C(F)(F)F (stereo not drawn) [Example 1] ; field requested: inhibition at 0.01 µM
Reply: 55

Ask: Query (molecule): N#Cc1ccc(N2CCC(C(=O)Nc3ccc(N4CC5(CCN(CC6CCN(c7ccc8c(c7)C(=O)N(C7CCC(=O)NC7=O)C8=O)CC6)CC5)C4)cn3)CC2)cc1C(F)(F)F (stereo not drawn) [Example 121] ; field requested: inhibition at 0.01 µM
Reply: 81

====

- testTarget: Androgen Receptor (AR) protein (Homo sapiens, UniProt P10275, T878A)
- Construct: endogenous in cells; host or cells: LNCaP
- protocolDescription: Androgen Receptor (AR) protein degradation assay in LNCaP cells, western blotting
- Format: cell-based
- appliedConditions: 20 h, 1 μM compound
Known inhibition at 1 µM of a selection of molecules
Write the numeric value and append its unit.

Use the examples below as a reference point.
N#Cc1ccc(N2CCC(C(=O)Nc3ccc(N4CCC(CN5CC6(CCN(c7ccc8c(=O)n(C9CCC(=O)NC9=O)nnc8c7)CC6)C5)CC4)cn3)CC2)cc1C(F)(F)F (stereo not drawn) [Example 52]
97%
N#Cc1ccc(N2CCC(C(=O)Nc3ccc(N4CCC(CCN5CCN(c6ccc7c(c6)C(=O)N(C6CCC(=O)NC6=O)C7=O)CC5)CC4)cn3)CC2)cc1Cl (stereo not drawn) [Example 87]
90%
N#Cc1ccc(N2CCC(C(=O)Nc3ccc(N4CC(CN5CCC(Oc6ccc7c(c6)C(=O)N(C6CCC(=O)NC6=O)C7=O)CC5)C4)cn3)CC2)cc1C(F)(F)F (stereo not drawn) [Example 148]
93%
CC1(COc2ccc(NC(=O)C3CCN(c4ccc(C#N)c(C(F)(F)F)c4)CC3)nc2)CN(CC2CCN(c3ccc4c(c3)C(=O)N(C3CCC(=O)NC3=O)C4=O)CC2)C1 (stereo not drawn) [Example 186]
96%
N#Cc1ccc(N2CCC(C(=O)Nc3ccc(N4CCC(CN5CC6(CCN(c7ccc8nnn(C9CCC(=O)NC9=O)c(=O)c8c7)CC6)C5)CC4)cn3)CC2)cc1C(F)(F)F (stereo not drawn) [Example 53]
93%

Ask: Query (molecule): N#Cc1ccc(N2CCC(C(=O)Nc3ccc(N4CCC(CCN5CCN(C6CN(c7ccc8c(n7)CN(C7CCC(=O)NC7=O)C8=O)C6)CC5)CC4)cn3)CC2)cc1C(F)(F)F (stereo not drawn) [Example 100] ; field requested: inhibition at 1 µM
Reply: 89%

Ask: Query (molecule): N#Cc1ccc(N2CCC(C(=O)Nc3ccc(N4CCC(CN5CC6(C5)CN(c5ccc7c(c5)C(=O)N(C5CCC(=O)NC5=O)C7=O)C6)CC4)cn3)CC2)cc1Cl (stereo not drawn) [Example 67] ; field requested: inhibition at 1 µM
Reply: 88%

Ask: Query (molecule): N#Cc1ccc(N2CCC(C(=O)Nc3ccc(N4CCN(CCOC5CCN(c6ccc7c(c6)C(=O)N(C6CCC(=O)NC6=O)C7=O)CC5)CC4)cn3)CC2)cc1C(F)(F)F (stereo not drawn) [Example 117] ; field requested: inhibition at 1 µM
Reply: 94%

Ask: Query (molecule): N#Cc1ccc(N2CCC(C(=O)Nc3ccc(N4CC[C@@H](CN5CC6(CCN(c7ccc8c(c7)C(=O)N(C7CCC(=O)NC7=O)C8=O)CC6)C5)C4)cn3)CC2)cc1C(F)(F)F (stereo partly drawn) [Example 61] ; field requested: inhibition at 1 µM
Reply: 97.5%

Ask: Query (molecule): N#Cc1ccc(N2CCC(F)(C(=O)Nc3ccc(N4CCC(CN5CCN(C6CCN(c7ccc8c(c7)CN(C7CCC(=O)NC7=O)C8=O)CC6)CC5)CC4)cn3)CC2)cc1C(F)(F)F (stereo not drawn) [Example 141] ; field requested: inhibition at 1 µM
Reply: 90%

Ask: Query (molecule): N#Cc1ccc(N2CCC(C(=O)Nc3ccc(OCC4CN(CC5CCN(c6ccc7c(c6)C(=O)N(C6CCC(=O)NC6=O)C7=O)CC5)C4)cn3)CC2)cc1C(F)(F)F (stereo not drawn) [Example 185] ; field requested: inhibition at 1 µM
Reply: 99%

Ask: Query (molecule): N#Cc1ccc(N2CCN(C(=O)Nc3ccc(N4CCC(CN5CC6(CCN(c7ccc8c(c7)C(=O)N(C7CCC(=O)NC7=O)C8=O)CC6)C5)CC4)nc3)CC2)cc1C(F)(F)F (stereo not drawn) [Example 103] ; field requested: inhibition at 1 µM
Reply: 44%

====

- testTarget: Androgen Receptor (AR) protein (Homo sapiens, UniProt P10275, T878A)
- Construct: endogenous in cells; host or cells: LNCaP
- protocolDescription: Androgen Receptor (AR) protein degradation assay in LNCaP cells, western blotting
- Type: cell-based
- appliedConditions: 20 h, 0.01 μM compound
quantityKind: inhibition at 0.01 µM (%)
# value in %; strip the unit string

Use the examples below as a reference point.
N#Cc1ccc(N2CCC(C(=O)Nc3ccc(N4CCC(CN5CCN(C[C@@H]6CCN(c7cc8c(cc7F)C(=O)N(C7CCC(=O)NC7=O)C8=O)C6)CC5)CC4)cn3)CC2)cc1C(F)(F)F (stereo partly drawn) [Example 38]
44
N#Cc1ccc(N2CCC(C(=O)Nc3ccc(N4CC(CN5CCN(CC6CN(c7ccc8c(c7)C(=O)N(C7CCC(=O)NC7=O)C8=O)C6)CC5)C4)cn3)CC2)cc1C(F)(F)F (stereo not drawn) [Example 30]
78
C[C@@H]1CN(CC2CN(c3ccc(NC(=O)C4CCN(c5ccc(C#N)c(C(F)(F)F)c5)CC4)nc3)C2)CCN1CC1CN(c2ccc3c(c2)C(=O)N(C2CCC(=O)NC2=O)C3=O)C1 (stereo partly drawn) [Example 32]
62
N#Cc1ccc(N2CCC(C(=O)Nc3ccc(OCC4CCN(CC5CN(c6ccc7c(c6)C(=O)N(C6CCC(=O)NC6=O)C7=O)C5)CC4)cn3)CC2)cc1C(F)(F)F (stereo not drawn) [Example 183]
72

Ask: Query (compound): N#Cc1ccc(N2CCC(C(=O)Nc3ccc(N4CC[C@@H](CN5CC6(CCN(c7ccc8c(c7)C(=O)N(C7CCC(=O)NC7=O)C8=O)CC6)C5)C4)cn3)CC2)cc1C(F)(F)F (stereo partly drawn) [Example 61] ; field requested: inhibition at 0.01 µM
Reply: 57

Ask: Query (compound): N#Cc1ccc(N2CCC(C(=O)Nc3ccc(N4CCC(CN5CCN(CC6CN(c7cc8c(cc7F)C(=O)N(C7CCC(=O)NC7=O)C8=O)C6)CC5)CC4)cn3)CC2)cc1C(F)(F)F (stereo not drawn) [Example 20] ; field requested: inhibition at 0.01 µM
Reply: 67

Ask: Query (compound): N#Cc1ncc(N2CCC(C(=O)Nc3ccc(N4CCC(CN5CCN(C6CCN(c7ccc8c(c7)C(=O)N(C7CCC(=O)NC7=O)C8=O)CC6)CC5)CC4)cn3)CC2)cc1C(F)(F)F (stereo not drawn) [Example 73] ; field requested: inhibition at 0.01 µM
Reply: 55

Ask: Query (compound): N#Cc1ncc(N2CCC(C(=O)Nc3ccc(N4CCC(CN5CCN(C6CCN(c7ccc8c(c7)CN(C7CCC(=O)NC7=O)C8=O)CC6)CC5)CC4)cn3)CC2)cc1C(F)(F)F (stereo not drawn) [Example 142] ; field requested: inhibition at 0.01 µM
Reply: 55

Ask: Query (compound): N#Cc1ccc(N2CCC(C(=O)Nc3ccc(N4CCN(CCCCCOc5ccc6c(c5)C(=O)N(C5CCC(=O)NC5=O)C6=O)CC4)cn3)CC2)cc1C(F)(F)F (stereo not drawn) [Example 113] ; field requested: inhibition at 0.01 µM
Reply: 55
